- Measurement protocol: Lipophilicity, 1-octanol/water partition coefficient (shake-flask)
- Type: physicochemical
- Applied conditions: pH 8.00, ionized BA
// LogPA− lookup, one value per entry
No unit in the answer, please; the number alone is enough.

- Compound: "CC[C@H]1[C@@H](O)C2C3CC[C@H]([C@H](C)C[C@H](C)C(=O)O)[C@@]3(C)[C@@H](O)CC2[C@@]2(C)CC[C@@H](O)C[C@@H]12 (some centres unmarked) [Ref. Cmpd. A, reference compound]"
  LogPA−: 1.4
- Compound: "CC[C@H]1[C@@H](O)C2C3CC[C@H]([C@H](C)CCc4nn[nH]n4)[C@@]3(C)[C@@H](O)CC2[C@@]2(C)CC[C@@H](O)C[C@@H]12 (some centres unmarked) [Compound 12]"
  LogPA−: 1.5
- Compound: "CC[C@H]1[C@@H](O)C2C3CC[C@H]([C@H](C)CC(=O)NCCO)[C@@]3(C)CCC2[C@@]2(C)CC[C@@H](O)C[C@@H]12 (some centres unmarked) [Compound 19]"
  LogPA−: 1.0
- Compound: "C[C@H](CCC(=O)O)[C@H]1CC[C@H]2[C@@H]3[C@H](O)C[C@@H]4C[C@H](O)CC[C@]4(C)[C@H]3CC[C@]12C [CDCA, chenodeoxycholic acid, reference compound]"
  LogPA−: 2.2

Prompt: If you can, please state the reported LogPA− value of CC[C@H]1[C@@H](O)C2C3CC[C@H]([C@H](C)CCc4nn[nH]n4)[C@@]3(C)CCC2[C@@]2(C)CC[C@@H](O)C[C@@H]12 (some centres unmarked) [Compound 15] .
Completion: 1.2

----------
- Target system: UniProt:Q8TDU6
- Measurement protocol: TGR5 activity: intracellular cAMP levels, NCI-H716 cells (HTR-FRET)
- Assay type: cell-based
- Parameters: endogenous in cells; host or cells: NCI-H716
- Applied conditions: 1 h; NCI-H716 cells; Ref. LCA 100% at 10 μM; read-out: TGR5 (NCI-H716) Efficacy
Value type: Emax (%)
Quick reminder: number only, in %, skip the unit.

- Molecule: "CC[C@H]1[C@@H](O)C2C3CC[C@H]([C@H](C)CCc4noc(=O)[nH]4)[C@@]3(C)CCC2[C@@]2(C)CC[C@@H](O)C[C@@H]12 (some centres unmarked) [Compound 16]"
  Target system: "UniProt:Q8TDU6"
  Emax / %: 116

Prompt: Which Emax is reported for this molecule? CC[C@H]1[C@@H](O)[C@@H]2[C@H](C[C@H](O)[C@]3(C)[C@@H]([C@H](C)C[C@@H](O)C(=O)O)CC[C@@H]23)[C@@]2(C)CC[C@@H](O)C[C@@H]12 [Compound 2]
Completion: 55

Prompt: Further, for CC[C@H]1[C@@H](O)[C@@H]2[C@H](C[C@H](O)[C@]3(C)[C@@H]([C@H](C)C[C@H](F)C(=O)O)CC[C@@H]23)[C@@]2(C)CC[C@@H](O)C[C@@H]12 [Compound 8] ?
Completion: 97

Prompt: Next record, please: CC[C@@H]1C2C[C@H](O)CC[C@]2(C)C2CC[C@@]3(C)C(CC[C@@H]3[C@H](C)Cc3nc(=O)o[nH]3)C2[C@@H]1O (some centres unmarked) [Compound 14]
Completion: 110

Prompt: Could you do the same for CC[C@H]1[C@@H](O)[C@@H]2[C@H](CC[C@]3(C)[C@@H]([C@H](C)CCc4nn[nH]n4)[C@@H](O)C[C@@H]23)[C@@]2(C)CC[C@@H](O)C[C@@H]12 [Compound 17] , please?
Completion: 119

----------
- Measurement protocol: Critical micellar concentration (surface tension / dye solubilization)
- Type: physicochemical
Each item that follows carries a reported CMpH.
Form: value (number only, do not type unit).

- Compound: "CC[C@H]1[C@@H](O)C2C3CC[C@H]([C@H](C)CC(F)(F)C(=O)O)[C@@]3(C)[C@@H](O)CC2[C@@]2(C)CC[C@@H](O)C[C@@H]12 (some centres unmarked)"
  Value type: "CMpH"
  Readout value: 2.7
- Compound: "C[C@H](CCC(=O)NCC(=O)O)[C@H]1CC[C@H]2[C@@H]3[C@H](O)C[C@@H]4C[C@H](O)CC[C@]4(C)[C@H]3CC[C@]12C [GCDCA, reference compound]"
  Value type: "CMpH"
  Readout value: 6.4
- Compound: "CC[C@H]1[C@@H](O)C2C3CC[C@H]([C@H](C)CCc4nn[nH]n4)[C@@]3(C)[C@@H](O)CC2[C@@]2(C)CC[C@@H](O)C[C@@H]12 (some centres unmarked)"
  Value type: "CMpH"
  Readout value: 6.6
- Compound: "CC[C@H]1[C@@H](O)C2C3CC[C@H]([C@H](C)CCc4noc(=O)[nH]4)[C@@]3(C)[C@@H](O)CC2[C@@]2(C)CC[C@@H](O)C[C@@H]12 (some centres unmarked)"
  Value type: "CMpH"
  Readout value: 7.0
- Compound: "CC[C@H]1[C@@H](O)[C@@H]2[C@H](C[C@H](O)[C@]3(C)[C@@H]([C@H](C)C[C@@H](F)C(=O)O)CC[C@@H]23)[C@@]2(C)CC[C@@H](O)C[C@@H]12"
  Value type: "CMpH"
  Readout value: 3.9
- Compound: "C[C@H](CC(=O)O)[C@H]1CC[C@H]2[C@@H]3[C@H](O)C[C@@H]4C[C@H](O)CC[C@]4(C)[C@H]3CC[C@]12C [Nor-CDCA, 24-nor-CDCA, reference compound]"
  Value type: "CMpH"
  Readout value: 7.9

Continue with the compound presented below.
Prompt: Please report the recorded CMpH for CC[C@H]1[C@@H](O)C2C3CC[C@H]([C@H](C)C[C@H](C)C(=O)O)[C@@]3(C)[C@@H](O)CC2[C@@]2(C)CC[C@@H](O)C[C@@H]12 (some centres unmarked) [Ref. Cmpd. A, reference compound] .
Completion: 6.1

----------
- Target system: TGR5 (Homo sapiens, UniProt Q8TDU6)
- Sequence (Q8TDU6 1-330): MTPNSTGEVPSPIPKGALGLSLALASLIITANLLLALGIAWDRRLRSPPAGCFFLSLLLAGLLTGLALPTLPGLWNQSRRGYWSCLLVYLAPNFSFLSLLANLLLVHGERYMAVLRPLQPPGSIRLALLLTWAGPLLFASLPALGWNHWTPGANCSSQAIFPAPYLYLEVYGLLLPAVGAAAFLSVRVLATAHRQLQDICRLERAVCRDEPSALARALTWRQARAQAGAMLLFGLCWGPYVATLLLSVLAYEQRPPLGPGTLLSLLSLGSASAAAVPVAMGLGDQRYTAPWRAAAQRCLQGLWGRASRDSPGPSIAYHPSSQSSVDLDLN
- Measurement protocol: TGR5 activity: intracellular cAMP levels, NCI-H716 cells (HTR-FRET)
- Assay type: cell-based
- Design: endogenous in cells; host or cells: NCI-H716
- Applied conditions: 1 h; NCI-H716 cells; Ref. LCA 100% at 10 μM; read-out: TGR5 (NCI-H716) Efficacy
The entries below come with measured Emax values attached.
Use % as the unit, but write only the number.

Please review the following examples before continuing.
- Compound: "CC[C@H]1[C@@H](O)C2C3CC[C@H]([C@H](C)CC(=O)NO)[C@@]3(C)CCC2[C@@]2(C)CC[C@@H](O)C[C@@H]12 (stereo partly shown)"
  Emax / %: 148
- Compound: "CC[C@H]1[C@@H](O)[C@@H]2[C@H](CC[C@]3(C)[C@@H]([C@H](C)CCc4nc(=O)o[nH]4)[C@@H](O)C[C@@H]23)[C@@]2(C)CC[C@@H](O)C[C@@H]12"
  Emax / %: 115

Prompt: What measured Emax goes with CC[C@H]1[C@@H](O)[C@@H]2[C@H](C[C@H](O)[C@]3(C)[C@@H]([C@H](C)C[C@@H](F)C(=O)O)CC[C@@H]23)[C@@]2(C)CC[C@@H](O)C[C@@H]12 ?
Completion: 75

----------
- Target system: TGR5 (Homo sapiens, UniProt Q8TDU6)
- Sequence (Q8TDU6 1-330): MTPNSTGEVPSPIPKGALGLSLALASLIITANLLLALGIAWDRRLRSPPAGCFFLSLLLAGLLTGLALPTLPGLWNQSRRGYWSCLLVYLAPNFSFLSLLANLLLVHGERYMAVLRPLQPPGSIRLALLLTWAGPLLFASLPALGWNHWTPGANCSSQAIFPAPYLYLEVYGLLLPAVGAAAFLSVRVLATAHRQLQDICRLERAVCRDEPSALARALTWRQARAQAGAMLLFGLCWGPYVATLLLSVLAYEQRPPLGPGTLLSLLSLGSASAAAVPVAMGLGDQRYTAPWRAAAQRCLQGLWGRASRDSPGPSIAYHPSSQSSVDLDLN
- Measurement protocol: TGR5 activity: cAMP in hTGR5 CHO-k1 cells
- Type: cell-based
- Design: expressed in transfected cells; host or cells: CHO-k1
- Applied conditions: hTGR5 CHO cells, cAMP
Value type: pEC50
Friendly reminder that pEC50 comes from taking -log10 of the concentration in mol/L.

// known answers, use as guide
- Molecule: "CC[C@H]1[C@@H](O)C2C3CC[C@H]([C@H](C)C[C@@H](CO)C(=O)O)[C@@]3(C)[C@@H](O)CC2[C@@]2(C)CC[C@@H](O)C[C@@H]12 (some centres unmarked) [Compound 4]"
  Value type: "pEC50"
  Readout value: 5.33
- Molecule: "CC[C@H]1[C@@H](O)C2C3CC[C@H]([C@H](C)CCc4nn[nH]n4)[C@@]3(C)[C@@H](O)CC2[C@@]2(C)CC[C@@H](O)C[C@@H]12 (some centres unmarked) [Compound 12]"
  Value type: "pEC50"
  Readout value: 6.15
- Molecule: "CC[C@H]1[C@@H](O)C2C3CC[C@H]([C@H](C)CC(=O)NCCOS(=O)(=O)[O-])[C@@]3(C)CCC2[C@@]2(C)CC[C@@H](O)C[C@@H]12.[Na+] (some centres unmarked) [Compound 21]"
  Value type: "pEC50"
  Readout value: 7.70
- Molecule: "CC[C@H]1[C@@H](O)C2C3CC[C@H]([C@H](C)CCc4noc(=O)[nH]4)[C@@]3(C)[C@@H](O)CC2[C@@]2(C)CC[C@@H](O)C[C@@H]12 (some centres unmarked) [Compound 11]"
  Value type: "pEC50"
  Readout value: 5.57

Prompt: I have this molecule here, CC[C@H]1[C@@H](O)[C@@H]2[C@H](CC[C@]3(C)[C@@H]([C@H](C)CCc4nn[nH]n4)[C@@H](O)C[C@@H]23)[C@@]2(C)CC[C@@H](O)C[C@@H]12 [Compound 17] , and I need its recorded pEC50.
Completion: 7.00

Prompt: And what about the molecule CC[C@H]1[C@@H](O)[C@@H]2[C@H](C[C@H](O)[C@]3(C)[C@@H]([C@H](C)C[C@@H](CF)C(=O)O)CC[C@@H]23)[C@@]2(C)CC[C@@H](O)C[C@@H]12 [Compound 6] ?
Completion: 4.53

Prompt: Try CC[C@H]1[C@@H](O)[C@@H]2[C@H](C[C@H](O)[C@]3(C)[C@@H]([C@H](C)C[C@@H](F)C(=O)O)CC[C@@H]23)[C@@]2(C)CC[C@@H](O)C[C@@H]12 [Compound 9] next.
Completion: 5.85

Prompt: Note, next up: CC[C@H]1[C@@H](O)C2C3CC[C@H]([C@H](C)CC(F)(F)C(=O)O)[C@@]3(C)CCC2[C@@]2(C)CC[C@@H](O)C[C@@H]12 (some centres unmarked) [Compound 10]
Completion: 6.47

Prompt: Next record, please: CC[C@H]1[C@@H](O)C2C3CC[C@H]([C@H](C)CC(=O)NCCO)[C@@]3(C)CCC2[C@@]2(C)CC[C@@H](O)C[C@@H]12 (some centres unmarked) [Compound 19]
Completion: 7.70

Prompt: And then CC[C@@H]1C2C[C@H](O)CC[C@]2(C)C2CC[C@@]3(C)C(CC[C@@H]3[C@H](C)Cc3nn[nH]n3)C2[C@@H]1O (some centres unmarked) [Compound 13] , what is it?
Completion: 6.00

Prompt: Now the same for CC[C@H]1[C@@H](O)C2C3CC[C@H]([C@H](C)CC(=O)NO)[C@@]3(C)CCC2[C@@]2(C)CC[C@@H](O)C[C@@H]12 (some centres unmarked) [Compound 20]
Completion: 6.52
